B1: TRIM35 (parent)
chain: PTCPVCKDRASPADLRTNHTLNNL

# Variants of: B1
# ASSAY: protein stability index of a GFP-peptide fusion (GPS, HEK-293T) (PSI 1-6); higher = more stable;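 further: lentivirally expressed fusions sorted by FACS into six bins by GFP to DsRed ratio, PSI derived from sequencing read proportions per bin multiplied by bin number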
# CONDITION: c terminus: a fixed tail appended
Binary classification by protein stability index, with 3 as an inclusive lower bound for 1 (yes); all other cases are 0 (no).

> print(dat)
   mutation.spec  assigned.label
1            T2E         1 (yes)
2           S11A         1 (yes)
3            R9P         1 (yes)
4           L21S         1 (yes)
5           R16I          0 (no)
6            P1A          0 (no)
7            D8H          0 (no)
